Tested on: HIV p24
protocol.text: p24 inhibition ELISA assay, HIV transgenic mouse model spleen cells
Type: cell-based
assay.setup: Human immunodeficiency virus 1
recorded.endpoint: pEC50
For clarity, pEC50 is expressed as the negative log10 of concentration in mol/L.

Check out these entries, answers already filled in.
- compound: "Cc1cccc(C(=O)NCCC(N)=O)c1SC(=O)c1ccccc1 [Compound 61]"
  pEC50: 4.80
- compound: "COc1cc(OC)cc(C(=O)Sc2ccccc2C(=O)NCCC(N)=O)c1 [Compound 12]"
  pEC50: 5.46
- compound: "Cc1ccccc1C(=O)Sc1ccccc1C(=O)NCCC(N)=O [Compound 22]"
  pEC50: 5.59

Task: What value of pEC50 has been reported for the following compound? CC(C)(C)c1ccc(C(=O)Sc2ccccc2C(=O)NCCC(N)=O)cc1 [Compound 23]
Result: 5.66

Task: Now consider COc1ccc(C(=O)Sc2ccccc2C(=O)NCCC(N)=O)cc1OC [Compound 11] and answer again.
Result: 5.44
